Source of measurements: PubChem BioAssay (NCI)

# Tested on: A549/ATCC NSCLC
# Method summary: NCI-60 one-dose screen, 48 h (100 = growth as untreated, 0 = no growth, -100 = all killed)
# Recorded conditions: 10 µM unless noted
About 83,000 compounds went through this panel and 20% of them were active in at least one assay; those are over-represented in the sample as a whole.
// reported growth per item
Give a bare numeral; the unit % is implied.

Prompt: Item `CCc1ccc(NC(=O)N[C@@H](Cc2cc(F)cc(F)c2)C(=O)N[C@@H]2C(=O)N3C[C@H](O)C[C@H]3C(=O)N3CCOC[C@H]3C(=O)N[C@@H](C)C(=O)N3C[C@H](C)C[C@H]3C(=O)O[C@H]2C)cc1` has what recorded growth?
Completion: 79.3

Prompt: Item `CC(C)C1=NOC(=O)C1=Cc1cn(-c2ccccc2)nc1-c1ccc(Cl)cc1` has what recorded growth?
Completion: 100

Prompt: Item `C=C(CC(=O)OC)C(C)=O` has what recorded growth?
Completion: 114

Prompt: Item N#Cc1c(Cl)nc(SCC2CO2)nc1-c1ccccc1 (stereo not given) has what recorded growth?
Completion: 124

Prompt: Item `c1ccc(-c2nnc(-c3c[nH]c4ncccc34)s2)cc1` has what recorded growth?
Completion: 95.6

Prompt: Item `O=C(O)c1cc([N+](=O)[O-])ccc1Br` has what recorded growth?
Completion: 101

Prompt: Item `O=C1COCCN1c1ccc(NCc2cn(Cc3ccc(F)cc3)c3ccccc23)cc1` has what recorded growth?
Completion: 48.4

Prompt: Item `[2H]C1([2H])CCN(C(=O)C2CC2)c2cc(NS(=O)(=O)c3ccc(-c4cccc(C(N)=O)c4)cc3)ccc21` has what recorded growth?
Completion: 45.2

Prompt: Item `CCN1c2ccccc2C(Cl)(c2ccc(N(C)C)cc2)c2ccccc21` has what recorded growth?
Completion: 82.9

Prompt: Item `CCN(CC)CCCNCc1cc(-c2ccccc2)nc2ccccc12` has what recorded growth?
Completion: 87.9
